Give measured Emax for each item. Keep answers brief.
Subject Of Test: UniProtKB P49684
Sequence (P49684 whole entry): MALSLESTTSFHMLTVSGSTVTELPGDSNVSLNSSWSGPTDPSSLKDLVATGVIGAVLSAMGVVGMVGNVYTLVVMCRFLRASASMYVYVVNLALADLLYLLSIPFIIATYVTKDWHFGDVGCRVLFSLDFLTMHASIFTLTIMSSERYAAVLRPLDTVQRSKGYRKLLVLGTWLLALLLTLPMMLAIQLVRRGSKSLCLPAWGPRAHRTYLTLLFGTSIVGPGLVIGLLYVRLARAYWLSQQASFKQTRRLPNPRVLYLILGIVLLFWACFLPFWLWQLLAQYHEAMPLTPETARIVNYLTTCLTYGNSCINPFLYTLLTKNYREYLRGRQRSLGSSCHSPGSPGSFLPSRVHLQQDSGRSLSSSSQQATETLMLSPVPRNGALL
Assay Remarks: Antagonist activity at UT receptor in Sprague-Dawley rat thoracic aortic ring assessed as reduction in URP-induced contraction by measuring Emax for […] at 1 uM pre-incubated for 30 mins […] relative to KCl-induced contraction (reference value: 107 +/- 3%)
Type: functional
API: value field is a number in %; no unit string.

Tell me the measured Emax of CC(C)[C@H](NC(=O)[C@@H]1CSSC[C@H](NC(=O)[C@H](N)CC(=O)O)C(=O)N[C@@H](Cc2ccc(I)cc2)C(=O)N[C@@H](Cc2c[nH]c3ccccc23)C(=O)N[C@@H](CCCCN)C(=O)N[C@@H](Cc2ccc(O)cc2)C(=O)N1)C(=O)O , please.
107

Tell me the measured Emax of CC(C)[C@H](NC(=O)[C@@H]1CSSC[C@H](NC(=O)[C@H](C)N)C(=O)N[C@@H](Cc2ccc(C#Cc3ccccc3)cc2)C(=O)N[C@@H](Cc2c[nH]c3ccccc23)C(=O)N[C@@H](CCCCN)C(=O)N[C@@H](Cc2ccc(O)cc2)C(=O)N1)C(=O)O , please.
25

Tell me the measured Emax of CC(C)[C@H](NC(=O)[C@@H]1CSSC[C@H](NC(=O)[C@@H](C)N)C(=O)N[C@@H](Cc2ccc(C#Cc3ccccc3)cc2)C(=O)N[C@@H](Cc2c[nH]c3ccccc23)C(=O)N[C@@H](CCCCN)C(=O)N[C@@H](Cc2ccc(O)cc2)C(=O)N1)C(=O)O , please.
104

Tell me the measured Emax of CC(C)[C@H](NC(=O)[C@@H]1CSSC[C@H](NC(=O)[C@H](C)N)C(=O)N[C@@H](Cc2ccc(-c3ccccc3)cc2)C(=O)N[C@@H](Cc2c[nH]c3ccccc23)C(=O)N[C@@H](CCCCN)C(=O)N[C@@H](Cc2ccc(O)cc2)C(=O)N1)C(=O)O , please.
31

Tell me the measured Emax of CC(C)[C@H](NC(=O)[C@@H]1CSSC[C@H](NC(=O)[C@@H](C)N)C(=O)N[C@@H](Cc2ccc(-c3ccccc3)cc2)C(=O)N[C@@H](Cc2c[nH]c3ccccc23)C(=O)N[C@@H](CCCCN)C(=O)N[C@@H](Cc2ccc(O)cc2)C(=O)N1)C(=O)O , please.
91

Tell me the measured Emax of CC(C)[C@H](NC(=O)[C@@H]1CSSC[C@H](NC(=O)[C@@H](C)N)C(=O)N[C@@H](Cc2ccc(I)cc2)C(=O)N[C@@H](Cc2c[nH]c3ccccc23)C(=O)N[C@@H](CCCCN)C(=O)N[C@@H](Cc2ccc(O)cc2)C(=O)N1)C(=O)O , please.
100
